Form field: IC50 (one value per entry).
# test.system: Recombinant human Cbl-b (aa 36-427) (Homo sapiens)
# Sequence (Q13191 36-427): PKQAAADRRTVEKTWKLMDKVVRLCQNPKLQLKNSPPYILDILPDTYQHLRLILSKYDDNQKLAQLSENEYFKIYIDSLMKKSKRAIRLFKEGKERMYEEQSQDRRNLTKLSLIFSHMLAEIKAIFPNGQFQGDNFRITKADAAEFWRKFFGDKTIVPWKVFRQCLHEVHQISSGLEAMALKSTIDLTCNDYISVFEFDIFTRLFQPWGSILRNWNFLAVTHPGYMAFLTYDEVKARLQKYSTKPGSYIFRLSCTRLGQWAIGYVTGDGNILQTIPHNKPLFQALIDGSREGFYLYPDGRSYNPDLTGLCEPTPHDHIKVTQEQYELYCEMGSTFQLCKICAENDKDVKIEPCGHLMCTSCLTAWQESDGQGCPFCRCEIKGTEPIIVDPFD
# assay: Cbl-b Biochemical Assay (TR-FRET)
# condition.label: read-out: TR-FRET hCbl-b IC50

1. CCNc1cc(-c2c(-c3nncn3C)cnn2C)cc(-c2nc3cc(CN4CCC5(CC5)C4)cc(C(F)(F)F)c3o2)n1	1000 to 10000 nM
2. C[C@H](N[C@@H]1CCC[C@@H]1O)c1cc(C(F)(F)F)c2oc(-c3cccc(-c4ccc(F)cc4-c4nncn4C)c3)nc2c1	< 200 nM
3. Cn1cnnc1-c1cc(F)ccc1-c1cccc(-c2nc3cc(CNC4CCCC4)cc(C(F)(F)F)c3o2)c1	< 200 nM

# IC50 of Cn1cnnc1-c1cc(F)ccc1-c1cc(-c2nc3cc(CNCC4CCC4)cc(F)c3o2)nc(C2CC2)c1 = < 200 nM

# IC50 of Cn1cnnc1-c1cc(F)ccc1-c1cc(-c2nc3cc(CN[C@@H]4CCC[C@@H]4O)cc(C(F)(F)F)c3o2)nc(C2CC2)c1 = < 200 nM

# IC50 of Cn1cnnc1-c1cc(F)ccc1-c1cccc(-c2nc3cc(CNCC(=O)N4CCC4)cc(C(F)(F)F)c3o2)c1 = < 200 nM

# IC50 of Cn1cnnc1-c1cc(F)ccc1-c1cccc(-c2cn3ccc(CO)cc3n2)c1 = 10000 to 50000 nM
